meta.source: ChEMBL document CHEMBL4513141

Tested on: Escherichia coli
measurementConditions: Concentration 20 uM; ASSAY_TEST Inhibition of Bacterial Growth; detection method Absorption (OD600); MEDIA CAMHB; plate type 384well; NBS; CORNING #3640; time 18 hr
Description: Antibacterial activity against Escherichia coli ATCC 25922 (CO-ADD:GN_001); MIC in CAMBH media using NBS plates, by OD(600)
Results with a measured potency or affinity are listed apart.
observedProperty: Inhibition (%)

[[record]]
compound = "O=C(O)c1cc2ccccc2c(Cc2c(O)c(C(=O)O)cc3ccccc23)c1O.OCCOCCN1CCN(C(c2ccccc2)c2ccc(Cl)cc2)CC1 [HYDROXYZINE PAMOATE]"
experimentalvalue = 0.33

[[record]]
compound = "Cl.NC1CCN(c2cccc(Cl)n2)CC1"
experimentalvalue = 8.42

[[record]]
compound = "CN1CCN(CCCN2c3ccccc3Sc3ccc(Cl)cc32)CC1.O=C(O)/C=C\\C(=O)O.O=C(O)/C=C\\C(=O)O [PROCHLORPERAZINE MALEATE]"
experimentalvalue = 1.77

[[record]]
compound = "NC(N)=Nc1nc(CSCC/C(N)=N/S(N)(=O)=O)cs1"
experimentalvalue = 3.55

[[record]]
compound = "Cc1cccc(Nc2ccncc2S(=O)(=O)NC(=O)NC(C)C)c1 [TORSEMIDE]"
experimentalvalue = 6.8

[[record]]
compound = "CC(=O)OCC(=O)[C@@]1(O)CC[C@H]2[C@@H]3CCC4=CC(=O)CC[C@]4(C)[C@H]3C(=O)C[C@@]21C [CORTISONE ACETATE]"
experimentalvalue = 5.41

[[record]]
compound = "CCOC(=O)O[C@]1(C(=O)OCCl)CC[C@H]2[C@@H]3CCC4=CC(=O)C=C[C@]4(C)[C@H]3[C@@H](O)C[C@@]21C [LOTEPREDNOL ETABONATE]"
experimentalvalue = 4.07

